Where these numbers come from: patent US9006444B2

Could you please report measured IC50 for the items listed next?
# tgt: recombinant human GST-SYK (Homo sapiens, UniProt P43405)
# Construct: purchased Carna Biosciences 08-176
# assayName: Homogeneous Time-Resolved Fluorescence (HTRF) Assay for the Recombinant Human Syk Enzyme
# Assay type: biochemical
# recordedConditions: GST-hSYK 5 pM, ATP 25 μM, 10-dose titration; read-out: rhSYK Activity
# Procedure: Homogeneous Time-Resolved Fluorescence (HTRF) Assay for the Recombinant Human Syk Enzyme A recombinant GST-hSYK fusion protein was used to measure potency of compounds to inhibit human Syk activity. […] Final volume of the reaction was 10 μL. Phosphorylation of the peptide was allowed to proceed for 45′ at room temperature. […] The resulting HTRF signal was measured after 30 minutes on an EnVision (Perkin-Elmer) reader using a time-resolved fluorescence protocol.

Completed entries (count: 2):
INSERT INTO assay_data (molecule, assaymetric, reported) VALUES
  ('NC(=O)c1ccc(N[C@@H]2CCCC[C@@H]2N)cc1Nc1cccc(-n2cccc2)n1 (relative stereo)', 'IC50', '< 1.5 nM'),
  ('NC(=O)c1ccc(N[C@@H]2CCCC[C@@H]2N)cc1Nc1cccc(-c2ccc(F)c(F)c2)n1 (relative stereo)', 'IC50', '1.5 to 15 nM');

Below are some molecules; for each one, tell me its IC50.
1. Cc1nc(Nc2cc(N[C@@H]3CCCC[C@@H]3N)ccc2C(N)=O)ccc1F (relative stereo)
2. Cn1cc(-c2cccc(Nc3cc(N[C@@H]4CCCC[C@@H]4N)ccc3C(N)=O)n2)cn1 (relative stereo)

1: 15 to 50 nM; 2: 1.5 to 15 nM

====

# tgt: recombinant human GST-SYK (Homo sapiens, UniProt P43405)
# Construct: purchased Carna Biosciences 08-176
# assayName: Homogeneous Time-Resolved Fluorescence (HTRF) Assay for the Recombinant Human Syk Enzyme
# Assay type: biochemical
# recordedConditions: GST-hSYK 5 pM, ATP 25 μM, 10-dose titration; read-out: rhSYK Activity
Could you please report measured IC50 for the items listed next?

Completed entries (count: 2):
INSERT INTO assay_data (compound, reported) VALUES
  ('NC(=O)c1ccc(N[C@@H]2CCCC[C@@H]2N)cc1Nc1cccc(-c2ccc(F)cc2)n1 (relative stereo) [Example 1.14]', '1.5 to 15 nM'),
  ('NC(=O)c1ccc(N[C@@H]2CCCC[C@@H]2N)cc1Nc1cccc(-c2cccc(F)c2)n1 (relative stereo) [Example 1.11]', '< 1.5 nM');

Now look at this one.
Observed IC50 on recombinant human GST-SYK (Homo sapiens, UniProt P43405) for COc1cccc(Nc2cc(N[C@@H]3CCCC[C@@H]3N)ccc2C(N)=O)n1 (relative stereo) [Example 1.2] , please.
1.5 to 15 nM

====

Could you please report measured pIC50 for the items listed next?
# tgt: recombinant human GST-SYK (Homo sapiens, UniProt P43405)
# Construct: purchased Carna Biosciences 08-176
# assayName: Homogeneous Time-Resolved Fluorescence (HTRF) Assay for the Recombinant Human Syk Enzyme
# Type: biochemical
# recordedConditions: GST-hSYK 5 pM, ATP 25 μM, 10-dose titration; read-out: rhSYK Activity
pIC50: −log10 of the molar value.

Completed entries (count: 2):
INSERT INTO assay_data (molecule, assaymetric, reported) VALUES
  ('Cc1cccc(Nc2cc(N[C@@H]3CCCC[C@@H]3N)ccc2C(N)=O)n1 (relative stereo)', 'pIC50', '7.30 to 7.82'),
  ('NC(=O)c1ccc(N[C@@H]2CCCC[C@@H]2N)cc1Nc1ccc2ccccc2n1 (relative stereo)', 'pIC50', '7.82 to 8.82');

Below are some molecules; for each one, tell me its pIC50.
1. COc1ccc(-c2cccc(Nc3cc(N[C@@H]4CCCC[C@@H]4N)ccc3C(N)=O)n2)cc1 (relative stereo)
2. NC(=O)c1ccc(N[C@@H]2CCCC[C@@H]2N)cc1Nc1cccc(-n2cccn2)n1 (relative stereo)
3. CCOc1cccc(Nc2cc(N[C@@H]3CCCC[C@@H]3N)ccc2C(N)=O)n1 (relative stereo)
4. NC(=O)c1ccc(N[C@@H]2CCCC[C@@H]2N)cc1Nc1cccc(-c2ccncc2)n1 (relative stereo)
5. COc1ccccc1-c1cccc(Nc2cc(N[C@@H]3CCCC[C@@H]3N)ccc2C(N)=O)n1 (relative stereo)

1. > 8.82
2. 7.82 to 8.82
3. 7.82 to 8.82
4. > 8.82
5. > 8.82
